# credit: PubChem BioAssay (NCATS)

# Experiment Description: qHTS of pediatric cancer cell lines to identify multiple opportunities for drug repurposing: Primary screen for RD cells (AID 1347104); note: nearly all actives have a fitted effect of over 55% in size
# Condition Info: RD rhabdomyosarcoma viability, CellTiter-Glo luminescence, 48 h; series mostly up to 46 µM
Records with an inconclusive call do not appear. Activity calls are given as the source filed them. Calls come from the whole dose curve; as a rule, active = well fitted cell-killing curve with a large enough effect; inconclusive = small, poorly fitted or top-dose-only effect; inactive = flat fitted curve, though single readings scatter.
Classes used: active, inactive

INSERT INTO assay_data (molecule, label_class) VALUES
  ('Cc1sc2c(c1C)C(c1ccc(Cl)cc1)=N[C@@H](CC(=O)OC(C)(C)C)c1nnc(C)n1-2', 'active'),
  ('c1ccc(C2CC2)c(OCC2=NCCN2)c1', 'inactive'),
  ('CN1CCN(C(=O)O[C@H]2c3nccnc3C(=O)N2c2ccc(Cl)cn2)CC1', 'inactive'),
  ('CC[C@@H](CO)NC(=O)[C@@H]1C=C2c3cccc4[nH]cc(c34)C[C@H]2N(C)C1', 'inactive'),
  ('NP(N)(=O)NC(=O)c1ccc(F)cc1', 'inactive'),
  ('COC[C@@H](NC(C)=O)C(=O)NCc1ccccc1', 'inactive'),
  ('CN(C)[C@@H]1C(=O)C(C(N)=O)=C(O)[C@@]2(O)C(=O)C3=C(O)c4c(O)cccc4[C@@](C)(O)[C@H]3C[C@@H]12', 'inactive'),
  ('Cc1ccc(-c2nc3ccc(C)cn3c2CC(=O)N(C)C)cc1', 'inactive'),
  ('C#CCN(C)[C@H](C)Cc1ccccc1', 'inactive'),
  ('O=c1oc2ccccc2c(O)c1C(CC(O)c1ccc(-c2ccc(Br)cc2)cc1)c1ccccc1 (centres undefined)', 'inactive'),
  ('C[C@]12CC[C@H]3[C@@H](CCC4=CC(=O)CC[C@@H]43)[C@@H]1CC[C@@H]2OC(=O)CCc1ccccc1', 'inactive'),
  ('Cc1ncc(CNC(=O)N(CCCl)N=O)c(N)n1', 'inactive'),
  ('CC(O)(CS(=O)(=O)c1ccc(F)cc1)C(=O)Nc1ccc(C#N)c(C(F)(F)F)c1 (centres undefined)', 'active'),
  ('CCN(CC)C(=O)N[C@@H]1C=C2c3cccc4[nH]cc(c34)C[C@@H]2N(C)C1', 'inactive');

* * *

# Tested on: C2A
# Experiment Description: qHTS profiling for inhibitors of Plasmodium falciparum proliferation (AID 504749); note: nearly all actives have a fitted effect of over 60% in size
# Condition Info: P. falciparum in erythrocytes, SYBR Green DNA, 72 h; series mostly up to 28.7 µM
Inconclusive results are not listed. Activity calls are given as the source filed them. Calls follow the shape of the dose curve; as a rule, active = well fitted inhibition curve with a large enough effect; inconclusive = small, poorly fitted or top-dose-only effect; inactive = flat fitted curve, though single readings scatter.
Possible outcomes: yes (1) for active, no (0) for inactive

INSERT INTO results (molecule, label_class) VALUES
  ('O=P1(NCCCl)OCCCN1CCCl (centres undefined)', 'no (0)'),
  ('CC1NCCOC1c1ccccc1 (centres undefined)', 'no (0)'),
  ('CN1C(=S)CN=C(c2ccccc2)c2cc(Cl)ccc21', 'no (0)'),
  ('O=c1[nH]c2ccccc2n1CCCN1CCC(n2c(=O)[nH]c3cc(Cl)ccc32)CC1', 'yes (1)');

* * *

# Experiment Description: qHTS drug screen for cell cycle checkpoint inhibitors in PARPi-resistant BRCA-mutant ovarian cancer cell lines. (AID 1963452)
# Condition Info: PEO1/OlaR viability, CellTiter-Glo luminescence, 96 h; measured here: PEO4 Z-AUC; stronger effect = lower value
Item-by-item account of Z-AUC
Measure: Z-AUC

INSERT INTO assay_data (compound, measure, numeric_value) VALUES
  ('Fc1ccc(C(OCCN2CCN(CCCc3ccccc3)CC2)c2ccc(F)cc2)cc1', 'Z-AUC', -0.0118),
  ('Cc1cc(SCc2sc(-c3ccc(C(F)(F)F)c(F)c3)nc2C)ccc1OCC(=O)O', 'Z-AUC', -0.303),
  ('N[C@@H](Cc1ccc(N(CCCl)CCCl)cc1)C(=O)O', 'Z-AUC', -0.0487),
  ('C#CCN(C)[C@H](C)Cc1ccccc1', 'Z-AUC', 0.551);
